system: RPMI-8226; test: NCI tumour cell line growth inhibition, 48 h
Activity calls are given as the source filed them. No stated cut-off is given here; in the data, active = GI50 up to about 1.1 µM and inactive = higher.
Give GI50 for every item shown.

Which GI50 is reported with RPMI-8226 for this entry: c1ccc2c(c1)ccc1nc(-c3ccc4c(c3)OCO4)c3c(c12)CCC3 ? 37.1 µM (inactive)

Let us now turn to C=CCOC(=O)/C(=C\c1ccc(OC)c(OC)c1)c1ccc(OC)c(OC)c1 13.4 µM (inactive)

How about this molecule: O=C1N2Cc3c4ccc5c3CN3C(=O)N6Cc7c(ccc(c7CN1C6(c1ccccc1)C23c1ccccc1)OCCOCCNCCOCCO4)OCCOCCNCCOCCO5 (configuration not stated) 11.7 µM (inactive)

And for CCOC(=O)C(C)(C)Oc1ccc2c(=O)cc(-c3ccc(Cl)cc3)oc2c1 ? > 100 µM (inactive)

Moving on to COC1(CC[C@@H](C)COC2OC(CO)C(O)C(O)C2O)OC2C[C@H]3[C@@H]4CC[C@H]5C[C@@H](OC6OC(CO)C(OC7OC(CO)C(O)C(O)C7O)C(O)C6OC6OC(C)C(O)C(O)C6O)[C@H](O)C[C@]5(C)[C@H]4CC[C@]3(C)C2[C@@H]1C (some centres not stated) 2 µM (inactive)

Next entry: NC(=S)N/N=C(/CC(=O)c1ccccc1)C(=O)Nc1ccc(Cl)c(Cl)c1 73.3 µM (inactive)

Would you mind doing Cc1cccc2c(N)c3cccc(C(=O)NCC[N+](C)(C)Cc4ccc([N+](=O)[O-])s4)c3nc12 as well? 2.62 µM (inactive)

====

system: SK-OV-3; assay: NCI tumour cell line growth inhibition, 48 h
Active and inactive are the calls of the source. Rule as the data show it: active = GI50 up to about 1.1 µM and inactive = higher.
Please provide measured GI50 for the entries that follow.

For CC1(C)OCC2OC3(c4nc(C#N)c(N)o4)OC(C)(C)OC3C2O1 (stereo unspecified) , what is its reported GI50? > 100 µM (inactive)

Quick one: COc1cc2c(cc1OC)C1Cc3sccc3CN1CC2 (stereo unspecified) > 100 µM (inactive)

Subsequent entry: OCN(CO)c1ccc2c(c1)Cc1cc(F)ccc1-2 25.2 µM (inactive)

Next compound: CCN(CC)C(=S)SNCc1ccc(S(N)(=O)=O)cc1 40.1 µM (inactive)

Entry CC(C)(C)c1cc(C2=NN(c3ccccc3)C(c3ccccc3)C2)cc(C(C)(C)C)c1O (stereo unspecified) please > 100 µM (inactive)

What about C=C(C)C(=O)OC1C/C(CO)=C\C(O)C/C(C)=C/C2OC(=O)C(=C)C21 (stereo unspecified) ? > 100 µM (inactive)

Next: CC1(C)C2CCC(=O)C1C(OCc1ccccc1)C2 (stereo unspecified) > 100 µM (inactive)

Now give it for C[C@@H]1C(=O)C[C@H]2C(C)(C)CCC[C@]2(C)[C@@]1(O)CCc1ccoc1 too. > 100 µM (inactive)

Field entry: CC(=O)[C@]1(O)Cc2c(O)c3c(c(O)c2[C@@H](OC2CC(N)C(O)C(C)O2)C1)C(=O)c1c(OCc2ccccc2)cccc1C3=O (stereo partly specified) 4.06 µM (inactive)

Likewise for C=CCNC(=O)N(CCCCC(NC(C)=O)C(=O)NCc1ccccc1)Cc1ccccc1 (stereo unspecified) ? > 100 µM (inactive)

Another: Cn1ccnc1Sc1ccc(/C=N/NC(=O)c2ccccc2O)cc1[N+](=O)[O-] > 100 µM (inactive)

Same for Cn1c(=O)c2nc(CCS)[nH]c2n(C)c1=O 68.1 µM (inactive)

What do you get for CC(C)(C)OC(=O)CN1CCNCCN(CC(=O)OC(C)(C)C)CC1 ? > 100 µM (inactive)

Now consider C/C(=C1/N=C(c2ccccc2)OC1=O)c1ccc(C)cc1 . > 100 µM (inactive)

Subsequent entry: N#C/C(=C\c1ccc(Cl)cc1)c1nc(-c2cc3ccccc3oc2=O)cs1 84.5 µM (inactive)

Try this compound too: O=C1/C(=C/c2ccccc2S)N=C(c2ccccc2)N1c1nc2ccc(Sc3ccccc3)cc2[nH]1 43.1 µM (inactive)

What do we get for C=CCN1C(=O)/C(=C/c2ccc(Cl)cc2)N=C1SC/C=C/C ? > 100 µM (inactive)

Next compound up: CC1(C)CC(C)(C)CC(O)(C2(O)CC(C)(C)CC(C)(C)C2)C1 > 100 µM (inactive)

Same for O=C1c2ccccc2OCC1/C=N/O (stereo unspecified) > 100 µM (inactive)

// next record COc1cc(/C=C2/SC(c3ccccc3)N(c3cc(Cl)ccc3Cl)C2=O)cc(OC)c1OC (stereo unspecified) > 100 µM (inactive)

Thanks! And CCOC(=O)c1c[nH]c(C(=O)C=[N+]=[N-])c1C1CCN(CC)C1=S (stereo unspecified) ? > 100 µM (inactive)
